Assay Remarks: Rat pharmacokinetic study of ziprasidone and ziprasidone sulfoxide with resveratrol or quercetin
Setup Conditions: male, Sprague-Dawley, plasma, po, 15 mg/kg, AUC(0-t), ziprasidone 15 mg/kg oral + resveratrol 50 mg/kg i.g., rats, n=6
Quantity: AUC(0-t) (ng·h/mL)
The reply should be a number in ng·h/mL, with the unit left off.

Returns the measured AUC(0-t) for the input compound. Input: O=C1Cc2cc(CCN3CCN(c4nsc5ccccc45)CC3)c(Cl)cc2N1 6760

* * *

Would you mind telling me the reported Relative activity (%) of each entry?
Test system: rat liver microsomes (RLM)
Assay Remarks: Inhibitor screening on ziprasidone metabolism in RLM
Assay type: in vitro ADME
Setup Conditions: 100 μM inhibitor, 0.3 mg/mL RLM, ziprasidone 10 μM, 20 min
Counter-ions that a name gives are not always drawn.
The reply should be a number in %, with the unit left off.

Returns the measured Relative activity (%) for the input molecule. Input: C[C@@H]1C(=O)O[C@H](C)[C@H]1C[C@@H](O)[C@](C)(O)[C@H]1CC[C@@]2(O)C3=CC(=O)[C@@H]4C[C@@H](O)[C@@H](O)C[C@]4(C)[C@H]3CC[C@]12C [Cyasterone] 83.75

Returns the measured Relative activity (%) for the input molecule. Input: CCCCN1CCCCC1C(=O)Nc1c(C)cccc1C (stereo not shown) [Bupivacaine hydrochloride] 104.14

Returns the measured Relative activity (%) for the input molecule. Input: CCCN1CCCC[C@H]1C(=O)Nc1c(C)cccc1C [Ropivacaine hydrochloride] 102.42

Returns the measured Relative activity (%) for the input molecule. Input: CC(C)[C@]12O[C@H]1[C@@H]1O[C@]13[C@]1(O[C@H]1C[C@H]1C4=C(CC[C@@]13C)C(=O)OC4)[C@@H]2O [Triptolide] 87.47

Returns the measured Relative activity (%) for the input molecule. Input: O=C(/C=C/c1ccc(O)c(O)c1)O[C@@H]1C[C@](O)(C(=O)O)C[C@@H](O)[C@H]1O [Chlorogenic acid] 91.52

Returns the measured Relative activity (%) for the input molecule. Input: CCCSc1nc(N[C@@H]2C[C@H]2c2ccc(F)c(F)c2)c2nnn([C@@H]3C[C@H](OCCO)[C@@H](O)[C@H]3O)c2n1 [Ticagrelor] 36.84

Returns the measured Relative activity (%) for the input molecule. Input: O=c1c(O)c(-c2cc(O)c(O)c(O)c2)oc2cc(O)cc(O)c12 [Myricetin] 2.64
